# ASSAY COMMENT: Determination of PFOA in blood plasma (UPLC-MS/MS)
# Format: in vivo, Gallus gallus domesticus
# CONDITION DETAILS: chicken, plasma, other: air sac injection in ovo, 50 µg/egg, E12; PFOA 50 µg/egg; read-out: Concentration in plasma, individual embryo
QUANTITY NAME: concentration at 5 d (ng/mL)
Provide the reading as a plain figure in ng/mL.

Entry O=C(O)C(F)(F)C(F)(F)C(F)(F)C(F)(F)C(F)(F)C(F)(F)C(F)(F)F [PFOA, perfluorooctanoic acid] : reported concentration at 5 d = ?
1440

====

# ASSAY COMMENT: Determination of PFOA in liver (UPLC-MS/MS)
# Type: in vivo, Gallus gallus domesticus
# CONDITION DETAILS: chicken (Gallus gallus domesticus) embryo, liver, other: air sac injection into the egg, 1000 µg/egg, PFOA 1000 µg/egg, chicken embryo liver, individual embryos; read-out: Concentration in liver
QUANTITY NAME: concentration at 5 days (ng/g)
Provide the reading as a plain figure in ng/g.

Entry O=C(O)C(F)(F)C(F)(F)C(F)(F)C(F)(F)C(F)(F)C(F)(F)C(F)(F)F : reported concentration at 5 days = ?
8570

====

# ASSAY COMMENT: Determination of PFOA in liver (UPLC-MS/MS)
# Format: in vivo, Gallus gallus domesticus
# CONDITION DETAILS: chicken, liver, other: air sac injection in ovo, 1000 μg/egg, E12; 1000 μg PFOA/egg on E7; read-out: Mean PFOA concentration in liver
QUANTITY NAME: concentration at 5 d
# output: numeric value plus its unit

Entry O=C(O)C(F)(F)C(F)(F)C(F)(F)C(F)(F)C(F)(F)C(F)(F)C(F)(F)F [PFOA, perfluorooctanoic acid] : reported concentration at 5 d = ?
11000 ng/g

Reference for the values: paper PMC4666608
